What pIC50 was measured for each of the following?
Biological target: HGFA (Homo sapiens, UniProt Q04756)
Construct: purchased R&D Systems 1514-SE-010
Sequence (Q04756 408-655 limits assumed): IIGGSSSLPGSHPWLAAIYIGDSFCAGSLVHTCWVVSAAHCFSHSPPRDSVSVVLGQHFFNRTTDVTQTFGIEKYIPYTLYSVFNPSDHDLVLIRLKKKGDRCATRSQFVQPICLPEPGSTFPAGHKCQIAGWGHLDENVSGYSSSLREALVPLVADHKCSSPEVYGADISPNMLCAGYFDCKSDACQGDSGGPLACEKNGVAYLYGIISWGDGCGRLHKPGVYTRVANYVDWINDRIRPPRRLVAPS
Sequence (Q04756 373-407 partner limits assumed): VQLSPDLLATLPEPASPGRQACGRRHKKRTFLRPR
Assay: Fluorogenic kinetic enzyme inhibitor assay, HGFA
Type: biochemical
Settings: read-out: HGFA IC50
Answers are plain numbers, as −log10 of the molar value.

Guide cases for pIC50, answers given:
[
  {
    "MOLECULE": "CC(=O)N[C@@H](Cc1cncn1COCc1ccccc1)C(=O)N[C@@H](CCCCNC(=N)N)C(=O)N[C@@H](CCC(C)C)C(=O)N[C@H](CCCNC(=N)N)C(=O)c1nc2ccccc2s1",
    "EXPERIMENTAL READOUT": "pIC50",
    "ASSAY RESULT": 6.27
  },
  {
    "MOLECULE": "CCC(C)[C@H](NC(C)=O)C(=O)N[C@@H](CCSC)C(=O)N[C@@H](Cc1ccccc1)C(=O)N[C@H](CCCNC(=N)N)C(=O)c1nc2ccccc2s1 (stereo partly drawn)",
    "EXPERIMENTAL READOUT": "pIC50",
    "ASSAY RESULT": 6.63
  },
  {
    "MOLECULE": "CCC(C)[C@H](NC(C)=O)C(=O)N[C@@H](CCC(N)=O)C(=O)N[C@@H](Cc1ccccc1)C(=O)N[C@@H](CCCNC(=N)N)C(=O)c1nc2ccccc2s1 (stereo partly drawn)",
    "EXPERIMENTAL READOUT": "pIC50",
    "ASSAY RESULT": 7.52
  },
  {
    "MOLECULE": "CC(=O)N[C@H]1Cc2ccc(cc2)OC/C=C\\C[C@@H](C(=O)N[C@@H](CCCNC(=N)N)C(=O)c2nc3ccccc3s2)NC(=O)[C@H](CC(C)C)NC1=O",
    "EXPERIMENTAL READOUT": "pIC50",
    "ASSAY RESULT": 7.28
  }
]

Your task in this section: give pIC50 for each listed record.
1. N=C(N)NCCC[C@H](NC(=O)[C@H](Cc1ccccc1)NC(=O)OCC1c2ccccc2-c2ccccc21)C(=O)c1nc2ccccc2s1
2. CC(=O)N[C@H](Cc1c[nH]c2ccccc12)C(=O)N[C@@H](CC(C)C)C(=O)N[C@@H](CCCNC(=N)N)C(=O)c1nc2ccccc2s1

Reply:
5.72
6.98
